Biological target: Insulin-like growth factor 1 receptor (Homo sapiens, UniProt P08069)
Sequence (P08069 31-736 limits assumed): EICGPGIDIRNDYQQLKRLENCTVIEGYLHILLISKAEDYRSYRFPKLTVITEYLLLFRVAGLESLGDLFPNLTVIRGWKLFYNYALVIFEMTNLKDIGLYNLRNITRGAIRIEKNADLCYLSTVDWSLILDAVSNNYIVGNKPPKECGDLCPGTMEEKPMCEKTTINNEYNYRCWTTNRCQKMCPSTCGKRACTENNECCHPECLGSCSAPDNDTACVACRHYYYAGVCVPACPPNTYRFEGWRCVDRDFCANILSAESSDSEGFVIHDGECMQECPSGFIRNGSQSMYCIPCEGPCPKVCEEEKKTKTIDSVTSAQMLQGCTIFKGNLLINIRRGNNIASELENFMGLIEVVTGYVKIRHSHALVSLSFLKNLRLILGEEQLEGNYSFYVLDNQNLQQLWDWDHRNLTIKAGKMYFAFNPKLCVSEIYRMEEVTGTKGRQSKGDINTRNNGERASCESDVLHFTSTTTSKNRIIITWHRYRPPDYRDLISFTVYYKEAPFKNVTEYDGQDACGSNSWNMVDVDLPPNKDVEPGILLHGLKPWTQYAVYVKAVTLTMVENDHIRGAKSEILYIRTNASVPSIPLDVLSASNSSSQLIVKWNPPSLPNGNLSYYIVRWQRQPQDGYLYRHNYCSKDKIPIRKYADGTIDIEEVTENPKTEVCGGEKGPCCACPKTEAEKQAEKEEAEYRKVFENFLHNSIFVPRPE
Sequence (P08069 741-1367 limits assumed): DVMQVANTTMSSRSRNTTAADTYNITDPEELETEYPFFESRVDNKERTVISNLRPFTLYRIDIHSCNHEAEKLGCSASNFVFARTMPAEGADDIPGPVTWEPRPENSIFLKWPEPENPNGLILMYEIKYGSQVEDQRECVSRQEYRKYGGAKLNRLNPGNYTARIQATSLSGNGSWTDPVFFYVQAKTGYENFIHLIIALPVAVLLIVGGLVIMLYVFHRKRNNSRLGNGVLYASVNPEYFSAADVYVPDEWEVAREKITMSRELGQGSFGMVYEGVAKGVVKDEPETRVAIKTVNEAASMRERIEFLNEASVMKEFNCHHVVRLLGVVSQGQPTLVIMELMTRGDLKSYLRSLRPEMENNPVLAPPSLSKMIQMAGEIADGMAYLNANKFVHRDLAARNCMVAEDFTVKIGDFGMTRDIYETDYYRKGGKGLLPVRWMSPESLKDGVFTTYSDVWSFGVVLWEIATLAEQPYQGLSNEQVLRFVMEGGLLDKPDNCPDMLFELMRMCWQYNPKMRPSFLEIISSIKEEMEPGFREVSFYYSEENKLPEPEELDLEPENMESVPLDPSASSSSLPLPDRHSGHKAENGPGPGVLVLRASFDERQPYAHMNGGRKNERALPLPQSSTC
recorded endpoint: IC50

INSERT INTO measurements (substance_smiles, recorded_endpoint, result) VALUES
  ('C=CC(=O)Nc1ccc(-c2ccc(NC(=O)Nc3cccc(Cl)c3)cc2)cn1', 'IC50', '40 nM');

---

Here we list compounds with their recorded pIC50 when tested on Angiopoietin-1 receptor (Homo sapiens).
Sequence (Q02763 whole entry): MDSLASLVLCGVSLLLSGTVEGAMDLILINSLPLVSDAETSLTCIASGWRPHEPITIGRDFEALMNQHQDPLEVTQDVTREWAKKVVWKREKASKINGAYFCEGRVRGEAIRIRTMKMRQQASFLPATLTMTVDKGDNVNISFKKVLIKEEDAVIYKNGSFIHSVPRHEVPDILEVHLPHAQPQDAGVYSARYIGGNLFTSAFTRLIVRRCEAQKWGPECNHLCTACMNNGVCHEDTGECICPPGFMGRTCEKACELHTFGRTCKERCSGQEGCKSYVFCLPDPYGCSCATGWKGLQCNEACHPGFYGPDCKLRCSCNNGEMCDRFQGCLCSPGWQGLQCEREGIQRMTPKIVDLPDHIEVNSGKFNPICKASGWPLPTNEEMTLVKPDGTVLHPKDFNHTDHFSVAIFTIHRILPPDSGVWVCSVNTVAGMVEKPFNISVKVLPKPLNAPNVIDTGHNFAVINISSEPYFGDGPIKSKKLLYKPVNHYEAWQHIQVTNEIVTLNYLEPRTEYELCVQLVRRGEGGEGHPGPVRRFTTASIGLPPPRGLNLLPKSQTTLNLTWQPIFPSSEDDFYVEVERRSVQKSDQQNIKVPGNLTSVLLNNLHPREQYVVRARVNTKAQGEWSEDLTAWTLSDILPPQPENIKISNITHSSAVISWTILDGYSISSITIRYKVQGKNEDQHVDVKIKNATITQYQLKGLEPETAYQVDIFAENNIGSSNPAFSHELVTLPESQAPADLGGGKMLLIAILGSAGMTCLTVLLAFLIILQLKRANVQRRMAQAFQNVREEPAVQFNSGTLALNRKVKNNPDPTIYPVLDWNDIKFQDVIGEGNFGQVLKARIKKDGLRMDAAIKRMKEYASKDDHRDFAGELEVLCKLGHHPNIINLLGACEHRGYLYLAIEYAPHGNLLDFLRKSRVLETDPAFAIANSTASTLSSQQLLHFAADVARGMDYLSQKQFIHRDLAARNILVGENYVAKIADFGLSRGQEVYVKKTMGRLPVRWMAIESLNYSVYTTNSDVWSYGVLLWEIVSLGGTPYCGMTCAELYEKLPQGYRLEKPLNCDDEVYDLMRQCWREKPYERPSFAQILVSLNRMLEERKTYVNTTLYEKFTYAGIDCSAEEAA
pIC50: −log10 of the molar value.
recorded endpoint: pIC50

INSERT INTO assay_data (substance_smiles, result_operator, recorded_number) VALUES
  ('Nc1ncc2ccc(-c3ccc(NC(=O)C4(C(=O)Nc5ccc(F)c(F)c5)CC4)cc3)cc2n1', '=', 7.84),
  ('Nc1ncc2ccc(-c3ccc(NC(=O)C4(C(=O)Nc5ccc(Cl)cc5Cl)CC4)cc3)cc2n1', '=', 7.26),
  ('O=C(Nc1cccc(-c2ccc3c(=O)[nH]cnc3c2)c1)Nc1ccc(F)c(F)c1', '=', 7.78),
  ('C=CC(=O)Nc1ccc(-c2ccc(NC(=O)Nc3ccc(F)cc3)cc2)cn1', '=', 6.98),
  ('C=CC(=O)Nc1ccc(-c2ccc(NC(=O)Nc3ccc(OC(F)(F)F)cc3)cc2)cn1', '=', 7.22),
  ('C=CC(=O)Nc1ccc(-c2ccc(NC(=O)Nc3cccc(Cl)c3)cc2)cn1', '=', 8.25),
  ('Nc1ncc2ccc(-c3ccc(NC(=O)C4(C(=O)Nc5ccc(OCCCN6CCOCC6)c(F)c5)CC4)cc3)cc2n1', '<', 6.30),
  ('Nc1ncc2ccc(-c3ccc(NC(=O)C4(C(=O)Nc5cc(OC(F)(F)F)ccc5Br)CC4)cc3)cc2n1', '=', 7.83),
  ('C=CC(=O)Nc1ccc(-c2ccc(NC(=O)Nc3ccc(Cl)c(C(F)(F)F)c3)cc2)cn1', '=', 8.01),
  ('Nc1ncc2ccc(-c3ccc(NC(=O)C4(C(=O)Nc5ccc(Cl)c(Cl)c5)CC4)cc3)cc2n1', '<', 6.30),
  ('C=CC(=O)Nc1ccc(-c2ccc(NC(=O)Nc3cccc(C(F)(F)F)c3)cc2)cn1', '=', 8.44),
  ('C=CC(=O)Nc1ccc(-c2ccc(NC(=O)Nc3cccc(C(C)C)c3)cc2)cn1', '=', 8.04);
